experiment: antimalarial activity against Dd2 strain (AID 2302);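 further: 0% = DMSO untreated growth and 100% = chloroquine plus artemisinin killed control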; conditions: P. falciparum Dd2 in RBCs, LDH growth readout, 72 h; at 2 µM; stronger effect = higher value
VALUE_KIND: growth inhibition (%)
Output spec: scalar in %, unitless text.

Here is how some molecules turned out for growth inhibition.
{"columns": ["MOLECULE", "UNITS", "growth inhibition"],
 "data": [
  ["Ic1cc(CNC2CCCCC2)ccc1OCc1cccc(COc2ccc(CNC3CCCCC3)cc2I)c1", "%", 34],
  ["CC(Cc1ccc(NC(=O)c2ccc(CC(C)NCc3ccc(Cl)c(Cl)c3)cc2)cc1)NCCc1cccc(Cl)c1 (stereo not given)", "%", 33],
  ["CC1CN(Cc2ccc(-c3ccc(-c4nc5ccc(F)cc5[nH]4)cc3)cc2)CC(C)O1 (stereo not given)", "%", 93]
]}

growth inhibition recorded for this molecule, COc1cc(C=NNc2nc(Nc3ccccc3)nc(Nc3ccccc3)n2)ccc1OCc1ccccc1[N+](=O)[O-] , is 18

growth inhibition recorded for this molecule, N#Cc1cccc(NC(=O)Nc2cccc(-c3cccc(-c4nc5ccc(F)cc5[nH]4)c3)c2)c1 , is 66
